Listing of entries alongside the reported Binding affinity (RU).
Biological target: acetylcholine receptor
Assay: SPR, peptide at 10 uM, acetylcholine receptor immobilized on chip
Give just the number in RU; leave the unit off.

Previously resolved entries follow.
*Q* Report Binding affinity (RU), nothing else, for this binder: RPCFR [5mer-910]
*A* 17

*Q* Provide measured Binding affinity (RU) value, entry: RPANR [5mer-631]
*A* 17

*Q* Tell us which Binding affinity (RU) value is on record for KKKFK [5mer-921]
*A* 21

*Q* Give Binding affinity (RU) for the following binder: KCCNR [5mer-615]
*A* 20

*Q* Using known records, supply Binding affinity (RU) for KCMGK [5mer-940]
*A* 18

*Q* State its Binding affinity (RU): RKHAK [5mer-906]
*A* 31

*Q* Answer with the recorded Binding affinity (RU) for the binder listed here: KYTFR [5mer-929]
*A* 28

*Q* Indicate the recorded Binding affinity (RU) value for this binder: KHTVK [5mer-647]
*A* 29

*Q* Please list Binding affinity (RU) recorded for the binder KMMMR [5mer-934]
*A* 17

*Q* Let me know recorded Binding affinity (RU) for KNPHK [5mer-640] , thanks.
*A* 15

Further cases:
*Q* Provide Binding affinity (RU) value for the following binder: RMWKR [5mer-922]
*A* 14

Data credit: patent US20250011363A1
